- measured.target: T1, FcRn-p3 fusion protein (human, UniProt P55899 24-297; P61769 21-119)
- T1 construct: baculovirus expressed; coated on ELISA wells; not shown: amino terminal part of bacteriophage p3 protein and CVDE protein
- T1 sequence (P55899 24-297, chain 1 of 2): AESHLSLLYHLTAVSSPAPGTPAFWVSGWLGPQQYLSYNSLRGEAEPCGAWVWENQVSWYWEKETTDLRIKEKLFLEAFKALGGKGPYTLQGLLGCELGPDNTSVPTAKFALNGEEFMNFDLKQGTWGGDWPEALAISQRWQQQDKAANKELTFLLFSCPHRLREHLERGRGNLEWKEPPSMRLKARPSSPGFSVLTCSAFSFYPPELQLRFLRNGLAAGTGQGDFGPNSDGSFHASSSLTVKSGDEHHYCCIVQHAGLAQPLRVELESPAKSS
- T1 sequence (P61769 21-119, chain 2 of 2): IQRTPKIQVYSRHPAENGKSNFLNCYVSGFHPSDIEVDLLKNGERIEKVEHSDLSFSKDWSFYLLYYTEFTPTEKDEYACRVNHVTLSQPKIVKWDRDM
- method.description: phage ELISA pH6
Ratio/Fc-H listing for selected binders.
Note: unit fold is implicit; provide only the numeric part.

Below are worked cases with known answers.
binder	numeric.readout
T6A_47 (other, EU numbering) CPPCTAPELLGGPSVFLFPPKPKDTLMISRTPEVTCVVVDVSHEDPEVKFNWYVDGVEVHNAKTKPREEQYNSTYRVVSVLTVLHQDWLNGKEYTCKVSNKALPAPIEKTISKAKGQPREPQVYTLPPSRDELTKNQVSLTCLVKGFYPSDIAVEWESNGQPENNYKTTPPVLDSDGSFFLYSKLTVDKSRWQQGNVFSCSVMHEALHYHYTQKSLSLSPGK	2.8
C4A_28 (other, EU numbering) CPPCPAPELLGGPSVFLFPPKPKDTLMISRTPEVTCVVEDVSHEDPEVKFNWYVDGVEVHNAKTKPREEQYNSTYRVVSVLTVLHQDWLNGKEYKCKVSNKALPAPIEKTISKAKGQPREPQVYTLPPSRDELTKNQVSLTCLVKGFYPSDIVVEWESNGQPENNYKTTPPVLDSDGSFFLYSKLTVDKSRWQQGNVFSCSVMHEALHYHYTQKSLSLSPGK	3.4

Now look at this entry.
Entry T5A_52 (other, EU numbering) CPPCPAPELLGGPSVFLFPPKPKDTLMISRTPEVTCVVVDVSHEDPEVKFNWYVDGVEVHNAKTKPREEQYNSTYRVVSVLTVLHQDWLDGKEYKCKVSNKVLPVPIEKTISKAKGQPREPQVYTLPPSRDELTKNQVSLTCLVKGFYPSDIAVEWESNGQPENNYKTTPPVLDSDGSFFLYSKLTVDKSRWQQGNVFSCSVMHEALHYHYTQKSLSLSPGK — recorded Ratio/Fc-H = 1.9
